target: Substance-P receptor (Homo sapiens); assay: Displacement of [125I]-labeled SP from the human Tachykinin receptor 1 expressed in CHO cells
Sequence (P25103 whole entry): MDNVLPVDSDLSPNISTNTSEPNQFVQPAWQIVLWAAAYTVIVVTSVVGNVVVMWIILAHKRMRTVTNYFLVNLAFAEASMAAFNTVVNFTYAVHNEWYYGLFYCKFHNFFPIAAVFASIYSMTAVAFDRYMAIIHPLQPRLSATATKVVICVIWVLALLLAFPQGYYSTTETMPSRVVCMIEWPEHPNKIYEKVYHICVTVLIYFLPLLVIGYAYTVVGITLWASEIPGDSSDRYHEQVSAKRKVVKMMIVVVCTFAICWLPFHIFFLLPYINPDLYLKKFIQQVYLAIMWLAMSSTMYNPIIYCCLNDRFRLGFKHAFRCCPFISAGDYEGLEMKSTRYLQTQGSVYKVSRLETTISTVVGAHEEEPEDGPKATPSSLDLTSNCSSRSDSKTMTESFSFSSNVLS
measurement_kind: pIC50
pIC50 field: float, defined as -log10 of concentration (mol/L).

Ask: What does the record list as pIC50 for `C[C@@H](O[C@H]1OCCN(Cc2n[nH]c(O)n2)[C@H]1c1ccccc1)c1cccc(C(F)(F)F)c1` ?
Result: 9.57

---

tested on: Gerbillinae; experiment: Inhibition of GR 73632-induced foot tapping in gerbils upon intravenous administration of compound; type: functional; details: read-out: ID50 (the source's name)
measurement_kind: log10 of ED50 (log10 of the value in mg/kg)
Friendly reminder: values = log10 of ED50, unit mg/kg.

Ask: What does the record list as log10 of ED50 for `O=c1[nH]nc(CN2CCO[C@H](OCc3cc(C(F)(F)F)cc(C(F)(F)F)c3)[C@@H]2c2ccc(F)cc2)[nH]1` ?
Result: -0.52

Ask: Request: COc1ccc(OC(F)(F)F)cc1CN[C@H]1CCCN[C@H]1c1ccccc1 (racemic)
Result: -1.52

Ask: Request: `C[C@H](O[C@H]1OCCN(Cc2n[nH]c(O)n2)[C@H]1c1ccccc1)c1cc(C(F)(F)F)cc(C(F)(F)F)c1`
Result: -0.80

Others:
Ask: What does the record list as log10 of ED50 for C[C@@H](O[C@H]1OCCN(Cc2n[nH]c(=O)[nH]2)[C@H]1c1ccc(F)cc1)c1cc(C(F)(F)F)cc(C(F)(F)F)c1 [APREPITANT] ?
Result: -0.44

Ask: Request: `O=c1[nH]nc(CN2CCO[C@H](OCc3cc(C(F)(F)F)cc(C(F)(F)F)c3)[C@@H]2c2ccccc2)[nH]1`
Result: -0.07

Ask: Request: COc1ccc(-n2nnnc2C(F)(F)F)cc1CNC1CCCNC1c1ccccc1 (racemic)
Result: -1.40
